All figures here come from PubChem BioAssay (NCI).

# measurement-notes: NCI Yeast Anticancer Drug Screen. Data for the mlh1 rad18 strain (AID 175)
# particulars: S. cerevisiae mlh1 rad18 strain growth inhibition; at 5.0 µM (retest, dose inferred, filed as 0.5); hits give high values
About 79,000 compounds went through this panel and 15% of them were active in at least one assay; those are over-represented in the sample as a whole. Active and inactive are the calls of the source. No stated cut-off is given here; in the data, active means growth inhibition above about 70%; inactive means the rest.

compound | growth inhibition
CNC1C(OC2C(OC3C(O)C(O)C(N=C(N)N)C(O)C3N=C(N)N)OC(C)C2(O)CO)OC(CO)C(O)C1O (stereo not given) | 12% (inactive)
CN1Cc2ccccc2/C=C\c2ccccc21 | -109% (inactive)
CC(Br)C(=O)c1ccc2cc(Br)c3ccccc3c2c1 (stereo not given) | 9% (inactive)
CC(C)NC(=O)OCc1c(COC(=O)NC(C)C)c(-c2ccc(Cl)c(Cl)c2)n2c1CCC2 | 13% (inactive)
O=C1c2cc([N+](=O)[O-])ccc2-c2cccc(F)c21 | 9% (inactive)
